Biological target: T1, 4H2697-bN
T1 chain: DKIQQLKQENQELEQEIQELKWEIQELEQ
Assay: two-hybrid library CCNG1;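 further: natural log of median RNA to DNA barcode read ratio; higher means stronger binding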
ASSAY ENDPOINT: interaction score
The reply should be a number, written without any unit.

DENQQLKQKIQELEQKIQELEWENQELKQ [4H1828-bN] ... -0.202
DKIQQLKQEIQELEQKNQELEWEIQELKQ [4H2610-bN] ... -0.363
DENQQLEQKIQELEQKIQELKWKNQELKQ [4H1328-bN] ... -0.465

Shifting focus to the binder that follows.
Sample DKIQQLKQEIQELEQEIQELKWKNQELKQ [4H2576-bN] ; interaction score observed: -0.235
